The values you see were collected from PubChem BioAssay (NCATS).

# assay-summary: P-glycoprotein substrates identified in KB-8-5-11 adenocarcinoma cell line, qHTS therapeutic library screen (AID 1346987); also: nearly all actives have a fitted effect of over 65% in size; also: potency is read from the fitted curve at half-maximal effect
# condition-details: KB-8-5-11 (P-gp overexpressing) viability, CellTiter-Glo, 72 h; series mostly up to 44.5 µM
Results filed as inconclusive are left out. The source made the active and inactive calls. Calls follow the shape of the dose curve; as a rule, active = well fitted inhibition curve with a large enough effect; inconclusive = small, poorly fitted or top-dose-only effect; inactive = flat fitted curve, though single readings scatter.
endpoint: Potency

O=C(O[C@@H]1Cc2c(O)cc(O)cc2O[C@H]1c1cc(O)c(O)c(O)c1)c1cc(O)c(O)c(O)c1 | inactive
O=C1c2ccccc2-c2c(NCCc3ccccc3)c(=O)[nH]c3cccc1c23 | 1.16 µM (active)
C=C(C)[C@@H]1CCC2=CC(=O)C[C@@H](C)[C@]2(C)C1 | inactive
Cc1cc(Nc2nn(-c3ccccc3)c(=O)c3ccccc23)n[nH]1 | 11.6 µM (active)
CC(N)C1CCC(C(=O)Nc2ccncc2)CC1 (stereo unspecified) | inactive
C[C@@H](CN1CCC(n2c(=O)[nH]c3cc(Cl)ccc32)CC1)NC(=O)c1ccc2ccccc2c1 | 18.4 µM (active)
CN1CCN(c2nc(C3=C(c4c[nH]c5ccccc45)C(=O)NC3=O)c3ccccc3n2)CC1 | inactive
CC1(C)N=C(N)N=C(N)N1c1ccc(Cl)cc1 | inactive
CCn1c(=O)c2cc(C(N)=O)c(N)nc2n(C2CC2)c1=O | inactive
COc1cc(/C=C(\C#N)C(N)=O)cc(CSc2nc3ccccc3s2)c1O | inactive
C[C@@H]1N=C(N)NC(N(C)C)=N1 | inactive

---

# Test system: HaCat
# assay-summary: Cytotoxic Profiling of Annotated Libraries Using Quantitative High-Throughput Screening (AID 1296008); also: nearly all actives have a fitted effect of over 60% in size
# condition-details: Five cell lines viability, CellTiter-Glo ATP luminescence, 48-72 h
Records with an inconclusive call do not appear. Active and inactive are the calls of the source. The call rests on the fitted dose curve; in most records, active means well fitted inhibition curve with a large enough effect; inconclusive means small, poorly fitted or top-dose-only effect; inactive means flat fitted curve, though single readings scatter.
Outcome codes: class 1 for active, class 0 for inactive

OCC(Cc1ccccc1)Nc1nc(Oc2ccc3c(c2)CCC3)nc2c1ncn2Cc1ccc(-c2ccccc2)cc1 (stereo not drawn) | class 1
COc1cc(-c2cc(-c3ccc(N4CCNCC4)cc3)cnc2C)cc(OC)c1OC | class 0
C=CC(=O)Nc1cc(Nc2nccc(-c3cn(C)c4ccccc34)n2)c(OC)cc1N(C)CCN(C)C | class 1
C[C@@H]1COCCN1c1cc(C2(S(C)(=N)=O)CC2)nc(-c2ccnc3[nH]ccc23)n1 (stereo partly drawn) | class 1
COc1cc(N2CCOCC2)ccc1Nc1ncc(F)c(Nc2ccccc2NS(C)(=O)=O)n1 | class 1
CC(=O)c1c(OCCN2CCCCC2)c(OCCC(C)c2ccc(F)cc2)c2oc(C)nc2c1C (stereo not drawn) | class 0
O=C1c2c(O[C@@H]3O[C@H](CO)[C@@H](O)[C@H](O)[C@H]3O)cc(O)cc2OC1(O)Cc1ccc(O)cc1 (stereo partly drawn) | class 0
C=C(C)C(=O)OC1[C@@H]2C(=C)C(=O)O[C@@H]2C[C@@H](C)[C@@H]2C=CC(=O)[C@@]12C (stereo partly drawn) | class 0
COc1cc2ncnc(Oc3cccc(NC(=O)Nc4cc(C(C)(C)C(F)(F)F)on4)c3)c2cc1OC | class 1
O=C(NCc1ccc(Oc2ccccc2)cc1)c1nc(-c2cc(Br)c(O)c(Br)c2)no1 | class 0
CCN(CCCOc1ccc2c(Nc3cc(CC(=O)Nc4cccc(F)c4)[nH]n3)ncnc2c1)CCOP(=O)(O)O | class 1
C/C=C(/COC(=O)/C(C)=C/C)C(=O)OC/C=C/c1ccc(OC)cc1 | class 0
COc1cc2ncnc(Nc3ccc(Oc4ccccc4)cc3)c2cc1OC | class 1
